- targetOfAssay: T1, recombinant biotinylated CD71 extracellular domain (Sino Biologics) with an N-terminal 6His tag (human, UniProt P02786 89-760, biotinylated (sites not given))
- T1 construct: extracellular domain; also called hCD71; huCD71
- T1 sequence (P02786 other isoform, or with tags, fused parts or gaps): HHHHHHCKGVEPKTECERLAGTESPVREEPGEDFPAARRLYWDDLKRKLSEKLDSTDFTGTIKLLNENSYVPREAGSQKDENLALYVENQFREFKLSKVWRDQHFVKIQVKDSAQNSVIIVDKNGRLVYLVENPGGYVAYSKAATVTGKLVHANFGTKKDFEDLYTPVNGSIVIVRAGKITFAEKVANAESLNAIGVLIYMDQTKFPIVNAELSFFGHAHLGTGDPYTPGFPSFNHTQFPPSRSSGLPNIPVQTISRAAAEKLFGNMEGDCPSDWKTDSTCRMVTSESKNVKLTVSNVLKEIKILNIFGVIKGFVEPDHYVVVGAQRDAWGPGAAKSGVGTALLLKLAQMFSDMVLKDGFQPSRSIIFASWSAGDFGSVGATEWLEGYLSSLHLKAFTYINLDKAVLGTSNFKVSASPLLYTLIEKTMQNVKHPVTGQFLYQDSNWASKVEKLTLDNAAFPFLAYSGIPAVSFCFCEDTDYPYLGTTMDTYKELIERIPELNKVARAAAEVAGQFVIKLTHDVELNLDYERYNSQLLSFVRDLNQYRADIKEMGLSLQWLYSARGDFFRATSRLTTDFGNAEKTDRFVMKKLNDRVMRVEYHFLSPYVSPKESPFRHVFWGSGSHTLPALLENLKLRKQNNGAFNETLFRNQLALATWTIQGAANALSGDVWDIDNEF
- testDescription: screening ELISA
assayReadout: hCD71

Known hCD71 results, listed for orientation:
Per the record, SEQ ID NO 246 (designed binder, FN3 domain) MLPAPKNLVVSRVTEDSARLSWTAPDAAFDSFTIAYNEQNHYGEAIVLTVPGSERSYDLTGLKPGTEYGVWIEGVKGGTLSWPLSAIFTT has hCD71 of 1.57e+06

// sample SEQ ID NO 90 (designed binder, FN3 domain) MLPAPKNLVVSRVTEDSARLSWTAPDAAFDSFTIHYWEFDPPGEAIVLTVPGSERSYDLTGLKPGTEYTVYIEGVKGGWWSKPLSAIFTT , its hCD71 was 1.09e+06

P. SEQ ID NO 155 (designed binder, FN3 domain) MLPAPKNLVVSRVTEDSARLSWTAPDAAFDSFPITYRERSQYGEAIVLTVPGSERSYDLTGLKPGTEYVVPIEGVKGGRGSKPLSAIFTT
Q. SEQ ID NO 181 (designed binder, FN3 domain) MLPAPKNLVVSHVTEDSARLSWTAPDAAFDSFPIAYAEPRPDGEAIVLTVPGSERSYDLTGLKPGTEYSVLIHGVKGGLLSSPLSAIFTT
Which numeric hCD71 is bigger, that of P or that of Q ? Answer format: the label of the selected item. Q
(Q: 2.95e+06, P: 1.84e+06)
